molecular target: Fuc(a1-2)[Gal(a1-3)]Gal(b1-3)GlcNAc(b1-2)Man(a1-3)[Fuc(a1-2)[Gal(a1-3)]Gal(b1-3)GlcNAc(b1-2)Man(a1-6)]Man(b1-4)GlcNAc(b1-4)GlcNAc; test: glycan array binding signal (z-score within array); higher = stronger binding; conditions: glycan notation: IUPAC condensed, linker removed
This is one part of a sample in which the strongest signals are shown more often than they occur.
measurementKind: glycan array binding signal (z-score)
// print number alone

Given item Epa1 (Candida glabrata) (protein) MGSSHHHHHHSSGLVPRGSHMTSSNDISLASKDPTTFPLGCSPDITTPKKGLSMELYSYDFRKKGSYPCWDAAYLDPNYPRTGYKSHRLLAKVDGVTGNINFYYHATKGCTPQLGHLPASYNYPKPLTMTNFTMLLYGYFRPKVTGFHTFTISADDLLFVNFGAGNAFDCCRRDSSADHFGNYQAYAIWGSKTAKDELTVHLDAGVYYPIRLFYNNREYDGALSFTFKTESNENTVSDFSEYFFSLDDTEEGCPGLISYD , the value recorded as its glycan array binding signal (z-score) is -0.325

SSA (Sclerotinia sclerotiorum), A7XUK7 (protein) MGFKGVGTYEIVPYQAPSLNLNAWEGKLEPGAVVRTYTRGDKPSDNAKWQVALVAGSGDSAEYLIINVHSGYFLTATKENHIVSTPQISPTDPSARWTIKPATTHQYEVFTINNKVSELGQLTVKDYSTHSGADVLSASAKTADNQKWYFDAK has a reported glycan array binding signal (z-score) of -0.312
